# Lookup of reported IC50 keyed by entry
biological target: c-KIT kinase (Seq. ID no. 1) (Homo sapiens); experiment: c-KIT kinase Assay (ADP production, pyruvate kinase/lactate dehydrogenase coupled); conditions: read-out: cKIT Enzyme Assay
Sequence (P10721 with tags, fused parts or gaps): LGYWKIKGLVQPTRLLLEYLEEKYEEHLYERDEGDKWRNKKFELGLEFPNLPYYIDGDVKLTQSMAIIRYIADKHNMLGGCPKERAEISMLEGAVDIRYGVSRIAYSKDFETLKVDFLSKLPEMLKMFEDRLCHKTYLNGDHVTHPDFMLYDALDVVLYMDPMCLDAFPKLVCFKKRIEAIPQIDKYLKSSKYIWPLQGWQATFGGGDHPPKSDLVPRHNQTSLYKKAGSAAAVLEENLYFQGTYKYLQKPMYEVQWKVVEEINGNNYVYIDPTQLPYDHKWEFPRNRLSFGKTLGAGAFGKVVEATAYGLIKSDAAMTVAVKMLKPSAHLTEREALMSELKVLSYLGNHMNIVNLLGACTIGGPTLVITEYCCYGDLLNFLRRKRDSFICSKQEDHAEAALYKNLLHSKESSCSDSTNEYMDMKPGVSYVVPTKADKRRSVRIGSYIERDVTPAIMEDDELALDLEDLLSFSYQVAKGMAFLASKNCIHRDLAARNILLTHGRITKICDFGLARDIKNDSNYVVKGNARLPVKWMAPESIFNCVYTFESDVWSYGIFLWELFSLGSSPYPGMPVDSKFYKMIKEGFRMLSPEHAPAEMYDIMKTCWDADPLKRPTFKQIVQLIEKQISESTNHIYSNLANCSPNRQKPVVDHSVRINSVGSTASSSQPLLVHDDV

Solved cases (2 shown):
cpd.smiles | assay.value
O=C(Nc1ccc(F)cc1)C1(C(=O)Nc2cc(Oc3nccc(-c4cn[nH]c4)n3)ccc2F)CC1 | < 10000 nM
Cc1cc(NC(=O)C2(C(=O)Nc3ccc(F)cc3)CC2)c(F)cc1Oc1ccnc(-c2cnn(C)c2)c1 | < 200 nM

Challenge: So what IC50 did `Cn1cc(-c2cc(Oc3ccc(NC(=O)C4(C(=O)NCc5ccccc5)CC4)cc3F)ccn2)cn1` get with c-KIT kinase (Seq. ID no. 1) (Homo sapiens)?
Response given: < 2000 nM

Challenge: What about `C[C@H](NC(=O)C1(C(=O)Nc2ccc(Oc3ccnc(-c4cnn(C)c4)c3)c(F)c2)CC1)c1ccccc1` ?
Response given: < 200 nM

Challenge: Next: `Cn1cc(-c2cc(Oc3ccc(NC(=O)C4(C(=O)Nc5ccc(F)cc5)CC4)nc3)ccn2)cn1`
Response given: < 2000 nM

Challenge: And what about the molecule `Cn1cc(-c2cc(Oc3ccc(NC(=O)C4(C(=O)Nc5ccc(F)cc5)CC4)cc3Cl)ccn2)cn1` ?
Response given: < 200 nM

Challenge: What would you report for `Cn1cc(-c2cc(Oc3ccc(NC(=O)C4(C(=O)Nc5cccc(C(F)(F)F)c5)CC4)cc3F)ccn2)cn1` ?
Response given: < 10000 nM
